Origin of the recorded values: PubChem BioAssay (Tox21)

- tested_target: Aromatase (Homo sapiens)
- assay_notes: qHTS assay to identify aromatase inhibitors (AID 743083); note: nearly all actives have a fitted effect of over 55% in size
- test_settings: MCF-7 aro ERE, testosterone-driven ERE luciferase, 24 h; series mostly up to 70.3 µM
Inconclusive results are not listed. Active and inactive are the calls of the source. Calls come from the whole dose curve; as a rule, active = well fitted inhibition curve with a large enough effect in the repeat runs; inconclusive = weak or mixed curves; inactive = no such curve, though single readings can be large or run the other way.
Your reply should match one of these outcome classes. active, inactive

### Prompt For CCCCCCCCCCCSCC(=O)O , which call appears in the assay record?
### Response inactive

### Prompt What would you report for CC1=C2[C@@H]([C@H](C)CC[C@H]2/C=C(\C)C(=O)O)[C@H](O)C1 ?
### Response inactive

### Prompt What would you report for COc1cc(S(=O)(=O)Nc2ccccc2)c(OC)cc1N ?
### Response inactive

### Prompt What would you report for O=S(=O)(O)CO ?
### Response inactive

### Prompt What would you report for CC1CCc2nccnc21 (stereo unspecified) ?
### Response inactive

### Prompt What would you report for CN1CCCN(C(c2ccccc2)c2ccc(Cl)cc2)CC1 (stereo unspecified) ?
### Response inactive

### Prompt What would you report for CC(=O)OC(C)C[N+](C)(C)C (stereo unspecified) ?
### Response inactive

### Prompt What would you report for CC(=O)c1ccc[nH]1 ?
### Response inactive

### Prompt What would you report for CCCCCc1ccco1 ?
### Response inactive

### Prompt What would you report for CCC(CO)(CO)CO ?
### Response inactive

### Prompt What would you report for CC(C)C(O)C(C)(C)CO (stereo unspecified) ?
### Response inactive

### Prompt What would you report for [Cl][Nd]([Cl])[Cl] ?
### Response inactive

### Prompt What would you report for O=NN(CCCl)C(=O)NCCCl ?
### Response inactive

### Prompt What would you report for CNS(=O)(=O)c1cc(C(=O)N2CCC(CCN3C4CCC3CC(n3c(C)nc5ccccc53)C4)(c3cccc(F)c3)CC2)c(Cl)cc1F (stereo unspecified) ?
### Response active

### Prompt What would you report for O=C(O)CCC(=O)c1ccc(-c2ccccc2)cc1 ?
### Response inactive

### Prompt What would you report for O=C(O)c1cc(Cl)cc(Cl)c1O ?
### Response inactive

### Prompt What would you report for CCN(CC)c1cccc(O)c1 ?
### Response inactive

### Prompt What would you report for CCCCCC ?
### Response inactive

### Prompt What would you report for Nc1ccn([C@H]2CS[C@@H](CO)O2)c(=O)n1 ?
### Response inactive

### Prompt What would you report for O=S(=O)(Cl)c1c(Cl)cccc1Cl ?
### Response inactive

### Prompt What would you report for CC(=O)C(C)=O ?
### Response inactive

### Prompt What would you report for CC(=O)NCCO ?
### Response inactive

### Prompt What would you report for Cc1ccc(N(CCO)CCO)cc1 ?
### Response inactive

### Prompt What would you report for CCC(CO)(CO)[N+](=O)[O-] ?
### Response inactive

### Prompt What would you report for CCC(C)(C)C(=O)O ?
### Response inactive

### Prompt What would you report for O=[N+]([O-])C1(Br)COCOC1 ?
### Response active

### Prompt What would you report for COC(OC)OC ?
### Response inactive

### Prompt What would you report for CCCCCCCCCCCCCCCCCC(=O)OCC(CC)CCCC (stereo unspecified) ?
### Response inactive

### Prompt What would you report for O=C(Oc1ccccc1)c1ccc2ccccc2c1O ?
### Response inactive

### Prompt What would you report for CC(C)(C)C(O)/C=C/c1ccc2c(c1)OCO2 (stereo unspecified) ?
### Response inactive

### Prompt What would you report for COC1CCC=CO1 (stereo unspecified) ?
### Response inactive

###

- assay_notes: qHTS assay to identify small molecule agonists of the vitamin D receptor (VDR) signaling pathway - cell viability counter screen (AID 743224); note: nearly all actives have a fitted effect of over 50% in size
- test_settings: VDR-bla HEK293T viability, CellTiter-Glo luminescence, 16 h; series mostly up to 62.6 µM
Results filed as inconclusive are left out. Calls of active or inactive are those of the source. The call rests on the fitted dose curve; in most records, active means well fitted cell-killing curve with a large enough effect in the repeat runs; inconclusive means weak or mixed curves, or effect the other way; inactive means no such curve, though single readings can be large or run the other way.
Your reply should match one of these outcome classes. 1 (yes) = active, 0 (no) = inactive

### Prompt For CC(C(=O)O)c1ccc(C(=O)c2cccs2)cc1 (centres undefined) , which call appears in the assay record?
### Response 0 (no)

### Prompt What would you report for CCN(CC)c1cccc(O)c1 ?
### Response 0 (no)

### Prompt What would you report for NC(=O)CCCCC(N)=O ?
### Response 0 (no)

### Prompt What would you report for CCCC(=O)OC(=O)CCC ?
### Response 0 (no)

### Prompt What would you report for CCC1CCC(CCC(=O)O)C1 (centres undefined) ?
### Response 0 (no)

### Prompt What would you report for CC(=O)OCC(C)C ?
### Response 0 (no)

### Prompt What would you report for CCOC(=O)N1CCC(Nc2ccc(Cl)cc2N)CC1 ?
### Response 0 (no)

### Prompt What would you report for CC(C)(O)CCc1ccccc1 ?
### Response 0 (no)

### Prompt What would you report for CCCCCCCC/C=C\CCCCCCCC(=O)OCCO ?
### Response 0 (no)

### Prompt What would you report for COc1cc(NCc2ccc3nc(N)nc(N)c3c2C)cc(OC)c1OC ?
### Response 1 (yes)

### Prompt What would you report for CN=C(N)NC(=O)Nc1c(C)cccc1C ?
### Response 0 (no)

### Prompt What would you report for CNC1CCCN(c2c(F)cc3c(=O)c(C(=O)O)cn(C4CC4)c3c2OC)C1 (centres undefined) ?
### Response 0 (no)

### Prompt What would you report for CCCCOC(=O)CCCCC(=O)OCCCC ?
### Response 0 (no)

### Prompt What would you report for CCCCC[C@H](O)/C=C/[C@H]1[C@H](O)CC(=O)[C@@H]1C/C=C\CCCC(=O)O ?
### Response 0 (no)

###

- assay_notes: qHTS assay to identify small molecule agonists of H2AX - cell viability counter screen (AID 1224847);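 note: wild-type CHO-K1 cells; top concentration of the series differs between compounds; nearly all actives have a fitted effect of over 30% in size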
- test_settings: CHO-K1 viability, CellTiter-Glo luminescence, 3 h; series mostly up to 154 µM
Records with an inconclusive call do not appear. Calls of active or inactive are those of the source. Calls come from the whole dose curve.
measure_name: outcome

Some entries whose results are on file:
| compound | measure_name | measured_value |
| --- | --- | --- |
| Cc1cc([N+](=O)[O-])ccc1N | outcome | inactive |
| CCCCCc1ccco1 | outcome | inactive |
| Nc1nc2ccc(OC(F)(F)F)cc2s1 | outcome | inactive |
| CCCCC(CC)COS(=O)(=O)O (centres undefined) | outcome | inactive |
| O=[N+]([O-])c1ccc2ncccc2c1 | outcome | inactive |

Kindly consider the entry below.
### Prompt Return reported outcome; argument: COc1cc(NC(C)CCCN)c2ncccc2c1 (centres undefined)
### Response inactive

###

- assay_notes: qHTS assay to identify small molecule antagonists of the retinoid-related orphan receptor gamma (ROR-gamma) signaling pathway - cell viability counter screen (AID 1159520); note: nearly all actives have a fitted effect of over 50% in size
- test_settings: Tet-on RORgamma CHO cells viability, ATP luminescence, 16 h; series mostly up to 92.4 µM
Records with an inconclusive call do not appear. Activity calls are given as the source filed them. Calls come from the whole dose curve; as a rule, active = well fitted cell-killing curve with a large enough effect in the repeat runs; inconclusive = weak or mixed curves, or effect the other way; inactive = no such curve, though single readings can be large or run the other way.
measure_name: outcome

| compound | outcome |
| --- | --- |
| Cc1c[nH]c2ccccc12 | inactive |
| O=S(=O)(Cl)c1c(Cl)cccc1Cl | inactive |
| CCCCCCC(CO)CCCC (stereo not drawn) | inactive |
| O=C1[C@@H]2[C@H]3CC[C@H](C3)[C@@H]2C(=O)N1CCCCN1CCN(c2ncccn2)CC1 | inactive |
| Cc1oc(=O)oc1COC(=O)[C@@H]1N2C(=O)[C@@H](NC(=O)[C@H](N)c3ccccc3)[C@H]2SC1(C)C | inactive |

### Prompt Return reported outcome; argument: COC(=O)CC(C(C)=O)C(=O)OC (stereo not drawn)
### Response inactive

### Prompt What would you report for CCOc1ncc(F)c(=O)[nH]1 ?
### Response inactive

### Prompt What would you report for CC(=O)Oc1cccc(O)c1 ?
### Response inactive

### Prompt What would you report for CC(C)C(=O)OCCOc1ccccc1 ?
### Response inactive

### Prompt What would you report for CCC1CCC(CCC(=O)O)C1 (stereo not drawn) ?
### Response inactive

### Prompt What would you report for CC12CC3CC(C)(C1)CC(N)(C3)C2 ?
### Response inactive

### Prompt What would you report for O=C(O)CNC(=O)c1ccccc1I ?
### Response inactive

### Prompt What would you report for NC(=O)c1ccccc1[N+](=O)[O-] ?
### Response inactive

### Prompt What would you report for CNc1c2c(nn1C)CCCC2 ?
### Response inactive

### Prompt What would you report for c1ccc(CCCc2ccncc2)cc1 ?
### Response inactive

### Prompt What would you report for CS(=O)(=O)c1ccc([C@@H](C[C@H]2CCC(=O)C2)C(=O)Nc2cnccn2)cc1Cl ?
### Response inactive

### Prompt What would you report for Cc1ccc(N(CC2=NCCN2)c2cccc(O)c2)cc1 ?
### Response inactive

### Prompt What would you report for O=c1[nH][nH]c(=O)c2cc([N+](=O)[O-])ccc12 ?
### Response inactive

### Prompt What would you report for O=C(/C=C/c1ccc([N+](=O)[O-])cc1)c1ccccc1 ?
### Response inactive

### Prompt What would you report for Cc1ccc2nc(N)[nH]c(=O)c2c1Sc1ccncc1 ?
### Response inactive

### Prompt What would you report for CCOC(=O)Oc1ccc(CCNC(=O)[C@H](CCSC)NC(C)=O)cc1OC(=O)OCC ?
### Response inactive

### Prompt What would you report for COc1ccc(-c2cc(C(F)F)nn2-c2ccc(S(N)(=O)=O)cc2)cc1F ?
### Response inactive

### Prompt What would you report for Nc1ccc(F)cc1 ?
### Response inactive

### Prompt What would you report for CC(C)(O)CCc1ccccc1 ?
### Response inactive

### Prompt What would you report for CCCCCCCCCCCSCC(=O)O ?
### Response inactive

### Prompt What would you report for O=C(c1ccccc1)c1ccc(O)cc1 ?
### Response inactive

### Prompt What would you report for C=CCOC(=O)COCCC(C)C ?
### Response inactive

### Prompt What would you report for C1CCCCC1 ?
### Response inactive
